Target: human Factor XIa (Homo sapiens)
Structures can show the parent of a compound that is named as a salt.
QUANTITY_KIND: Ki (nM)
Form entry: value (nM) — number only.

Some molecules with known Ki results, for comparison:
MOLECULE	REPORTED_MEASUREMENT
O=C1NCCCCC[C@H](n2cnc(-c3cc(Cl)ccc3-n3cc(Cl)nn3)cc2=O)c2cccc(c2)N2CCNC[C@H]12 [Example 9, hydrochloride]	11
CC(C)(C)OC(=O)N1CCN2c3cccc(c3)[C@@H](n3cnc(-c4c(-n5cc(Cl)nn5)ccc(Cl)c4F)cc3=O)CCCCCNC(=O)[C@H]2C1	5
NCC[C@H]1Nc2cccc(c2)[C@@H](n2cnc(-c3cc(Cl)ccc3-n3cc(Cl)nn3)cc2=O)CCCCCNC1=O [Example 27, hydrochloride]	871
CC(=O)N1CCN2c3cccc(c3)[C@@H](n3cnc(-c4cc(Cl)ccc4-n4cc(Cl)nn4)cc3=O)CCCCCNC(=O)[C@H]2C1	6
O=C(NC[C@H]1Nc2cccc(c2)[C@@H](n2cnc(-c3cc(Cl)ccc3-n3cc(Cl)nn3)cc2=O)CCCCCNC1=O)c1cccnc1	62

Ask: Request body: readout Ki, system human Factor XIa (Homo sapiens), query CC(C)(C)OC(=O)CN1CCN2c3cccc(c3)[C@@H](n3cnc(-c4cc(Cl)ccc4-n4cc(Cl)nn4)cc3=O)CCCCCNC(=O)[C@H]2C1 . Return the value.
Result: 11

###

Molecular target: human plasma kallikrein (Homo sapiens, UniProt P03952)
Sequence (P03952 391-638 limits assumed): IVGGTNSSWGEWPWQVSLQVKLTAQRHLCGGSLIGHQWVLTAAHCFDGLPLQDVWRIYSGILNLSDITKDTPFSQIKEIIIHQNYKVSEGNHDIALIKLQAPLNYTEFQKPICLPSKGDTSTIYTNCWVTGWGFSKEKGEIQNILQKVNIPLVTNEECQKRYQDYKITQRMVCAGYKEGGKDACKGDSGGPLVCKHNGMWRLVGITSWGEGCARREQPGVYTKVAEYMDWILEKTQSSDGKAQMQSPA
Sequence (P03952 20-390 partner limits assumed): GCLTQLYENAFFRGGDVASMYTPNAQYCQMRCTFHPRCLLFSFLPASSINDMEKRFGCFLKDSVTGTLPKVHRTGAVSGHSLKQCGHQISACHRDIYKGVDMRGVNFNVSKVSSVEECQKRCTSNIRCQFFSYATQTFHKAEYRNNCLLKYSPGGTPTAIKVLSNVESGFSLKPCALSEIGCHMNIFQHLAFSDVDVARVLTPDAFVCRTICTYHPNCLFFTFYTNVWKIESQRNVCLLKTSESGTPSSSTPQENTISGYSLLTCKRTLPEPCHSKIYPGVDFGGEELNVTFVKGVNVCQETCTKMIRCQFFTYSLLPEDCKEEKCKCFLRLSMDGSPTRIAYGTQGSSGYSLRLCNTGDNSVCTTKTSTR
Experiment: Plasma kallikrein enzyme inhibition assay (chromogenic substrate S-2302), Ki
Settings: purified human plasma kallikrein, substrate S-2302, pH 7.5
Where a name gives a salt, the structure may show the parent alone.
Overview of recorded pKi for various compounds
// pKi is dimensionless: -log10 of concentration (M)

Worked set:
COMPOUND	REPORTED_MEASUREMENT
COC(=O)N1CCN2c3cccc(c3)[C@@H](NC(=O)c3cnn(-c4cccc(Cl)c4F)c3C)CCCCCNC(=O)[C@H]2C1 [Example 21]	5.04
COC(=O)NCC[C@@H]1Nc2cccc(c2)[C@@H](NC(=O)c2cnn(-c3cccc(Cl)c3F)c2Cl)CCCCCNC1=O [Example 31]	5.02
COC(=O)N1CCN2c3cccc(c3)[C@@H](n3cnc(-c4cc(Cl)ccc4-n4cc(Cl)nn4)cc3=O)CCCCCNC(=O)[C@@H]2C1 [Example 3]	5.39
CC(C)(C)OC(=O)N1CCN2c3cccc(c3)[C@@H](n3cnc(-c4cc(Cl)ccc4-n4cc(Cl)nn4)cc3=O)CCCCCNC(=O)[C@H]2C1 [Example 8]	5.96
CC(C)(C)OC(=O)N1CC(=O)N2c3cccc(c3)[C@@H](n3cnc(-c4cc(Cl)ccc4-n4cc(Cl)nn4)cc3=O)CCCCCNC(=O)[C@@H]2C1 [Example 4]	5.50

Ask: I'd like to know its pKi. The compound in question is CC(C)(C)OC(=O)N1CCN2c3cccc(c3)[C@@H](n3cnc(-c4cc(Cl)ccc4-n4cc(Cl)nn4)cc3=O)CCCCNC(=O)[C@H]2C1 [Example 15]
Result: 5.46

Ask: Consider the compound O=C1NCCCCC[C@H](n2cnc(-c3cc(Cl)ccc3-n3cc(C(F)(F)F)nn3)cc2=O)c2cccc(c2)N2C(=O)CC[C@H]12 [Example 33] and give its measured pKi.
Result: 6.50

Ask: Fill in the blank: the reported pKi of O=C1NCCCCC[C@H](n2cnc(-c3cc(Cl)ccc3-n3cc(Cl)nn3)cc2=O)c2cccc(c2)N2CCNC[C@H]12 [Example 9, hydrochloride] is ____.
Result: 5.74

Ask: Quick one: pKi for CC(C)(C)OC(=O)N1CCN2c3cccc(c3)[C@@H](n3cnc(-c4cc(Cl)ccc4-n4cc(Cl)nn4)cc3=O)CCCCCNC(=O)[C@@H]2C1 [Example 1] ?
Result: 5.46

Ask: Requested read-out: pKi. Entry: O=C1NCCCCC[C@H](n2cnc(-c3c(-n4cc(Cl)nn4)ccc(Cl)c3F)cc2=O)c2cccc(c2)N2C(=O)CC[C@H]12 [Example 34]
Result: 6.87

Ask: Give the measured pKi of O=C1NCCCCC[C@H](n2cnc(-c3cc(Cl)ccc3-n3cc(Cl)nn3)cc2=O)c2cccc(c2)N2C(=O)CNC[C@H]12 [Example 7, hydrochloride] .
Result: 5.32

###

Reported log10(Ki), UniProt P03951.
Where a name gives a salt, the structure may show the parent alone.
Please be aware that the numbers have been log10-transformed from Ki in nM.

MOLECULE	log10(Ki)
O=C1NCCCCC[C@H](n2cnc(-c3cc(Cl)ccc3-n3cc(C(F)(F)F)nn3)cc2=O)c2cccc(c2)N2C(=O)CC[C@H]12 [Example 33]	1.08
O=C1NCCCCC[C@H](n2cnc(-c3cc(Cl)ccc3-n3cc(Cl)nn3)cc2=O)c2cccc(c2)N2C(=O)CNC[C@@H]12 [Example 6, hydrochloride]	3.78

Next, consider the following molecule.
Ask: Fill in the blank: the reported log10(Ki) of Cc1c(C(=O)N[C@H]2CCCCCNC(=O)[C@H]3CNCCN3c3cccc2c3)cnn1-c1cccc(Cl)c1F [Example 20, hydrochloride] is ____.
Result: 3.12

###

Listed next: entries and their corresponding pKi.
Biological target: human plasma kallikrein (Homo sapiens)
Construct: purchased Enzyme Research Laboratories
Experiment: Plasma kallikrein enzyme inhibition assay (chromogenic substrate S-2302), Ki
Format: biochemical
Settings: purified human plasma kallikrein, substrate S-2302, pH 7.5
Where a name gives a salt, the structure may show the parent alone.
pKi is defined as minus the log10 of a concentration measured in mol/L.

Below, each entry is followed by its recorded pKi result.
COMPOUND	pKi
COC(=O)NC[C@H]1Nc2cccc(c2)[C@@H](n2cnc(-c3cc(Cl)ccc3-n3cc(Cl)nn3)cc2=O)CCCCCNC1=O [Example 23]	5.57
COC(=O)NCC[C@@H]1Nc2cccc(c2)[C@@H](n2cnc(-c3cc(Cl)ccc3-n3cc(Cl)nn3)cc2=O)CCCCCNC1=O [Example 30]	5.25
CC(C)(C)OC(=O)N1CC(=O)N2c3cccc(c3)[C@@H](n3cnc(-c4cc(Cl)ccc4-n4cc(Cl)nn4)cc3=O)CCCCCNC(=O)[C@H]2C1 [Example 5]	5.22
CN1CCN2c3cccc(c3)[C@@H](n3cnc(-c4cc(Cl)ccc4-n4cc(Cl)nn4)cc3=O)CCCCCNC(=O)[C@H]2C1 [Example 13]	6.36
CC(=O)N1CCN2c3cccc(c3)[C@@H](n3cnc(-c4cc(Cl)ccc4-n4cc(Cl)nn4)cc3=O)CCCCCNC(=O)[C@H]2C1 [Example 12]	5.98

Ask: Sample O=C(NC[C@H]1Nc2cccc(c2)[C@@H](n2cnc(-c3cc(Cl)ccc3-n3cc(Cl)nn3)cc2=O)CCCCCNC1=O)c1cccnc1 [Example 24] — what was its pKi?
Result: 5.28

Ask: Quick check: pKi of COC(=O)N1CCN2c3cccc(c3)[C@@H](N3CCC(c4cc(Cl)ccc4-n4cc(Cl)nn4)=CC3=O)CCCCCNC(=O)[C@H]2C1 [Example 22] ?
Result: 6.72

Ask: Reported pKi for O=C1NCCCCC[C@H](n2cnc(-c3c(-n4cc(Cl)nn4)ccc(Cl)c3F)cc2=O)c2cccc(c2)N2C(=O)CC[C@@H]12 [Example 35] : what is it?
Result: 4.95

Ask: I have this compound here, O=C1NCCCCC[C@H](n2cnc(-c3cc(Cl)ccc3-n3cc(Cl)nn3)cc2=O)c2cccc(c2)N2C(=O)CNC[C@@H]12 [Example 6, hydrochloride] , and I need its recorded pKi.
Result: 4.89

Ask: Find the recorded pKi belonging to O=C(O)CN1CCN2c3cccc(c3)[C@@H](n3cnc(-c4cc(Cl)ccc4-n4cc(Cl)nn4)cc3=O)CCCCCNC(=O)[C@H]2C1 [Example 14] and report it.
Result: 6.97

Ask: Which pKi value belongs to Cc1c(C(=O)N[C@H]2CCCCCNC(=O)[C@H]3CNCCN3c3cccc2c3)cnn1-c1cccc(Cl)c1F [Example 20, hydrochloride] ?
Result: 5.59

Ask: What does the data say about its pKi? Entry: CCOC(=O)c1cnc(N2CCN3c4cccc(c4)[C@@H](n4cnc(-c5cc(Cl)ccc5-n5cc(Cl)nn5)cc4=O)CCCCCNC(=O)[C@H]3C2)o1 [Example 17]
Result: 5.91

Ask: // pKi lookup, key: NCC[C@H]1Nc2cccc(c2)[C@@H](n2cnc(-c3cc(Cl)ccc3-n3cc(Cl)nn3)cc2=O)CCCCCNC1=O [Example 27, hydrochloride]
Result: 4.85

###

Target: human Factor XIa (Homo sapiens, UniProt P03951)
Construct: purchased Haematologic Technologies
Sequence (P03951 388-625 limits assumed): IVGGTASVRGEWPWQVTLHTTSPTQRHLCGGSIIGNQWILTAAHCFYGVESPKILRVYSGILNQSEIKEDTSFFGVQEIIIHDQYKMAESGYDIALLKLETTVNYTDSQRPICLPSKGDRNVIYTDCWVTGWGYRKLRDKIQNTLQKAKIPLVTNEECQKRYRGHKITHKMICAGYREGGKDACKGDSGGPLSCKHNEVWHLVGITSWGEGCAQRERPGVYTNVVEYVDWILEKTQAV
Sequence (P03951 19-387 partner limits assumed): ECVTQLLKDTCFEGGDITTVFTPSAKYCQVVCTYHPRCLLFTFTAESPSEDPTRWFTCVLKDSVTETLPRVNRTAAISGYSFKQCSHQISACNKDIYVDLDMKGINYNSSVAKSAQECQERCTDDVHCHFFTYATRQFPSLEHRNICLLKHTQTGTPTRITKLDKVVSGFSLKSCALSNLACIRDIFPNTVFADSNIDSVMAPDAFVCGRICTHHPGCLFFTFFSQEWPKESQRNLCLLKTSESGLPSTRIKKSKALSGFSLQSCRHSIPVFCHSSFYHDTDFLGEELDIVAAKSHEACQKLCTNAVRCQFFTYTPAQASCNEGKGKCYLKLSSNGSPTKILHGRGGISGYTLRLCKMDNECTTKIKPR
Assay: Factor XIa enzyme inhibition assay (chromogenic substrate S-2366), Ki
Format: biochemical
Conditions: purified human Factor XIa, substrate S-2366, pH 7.4
Counter-ions that a name gives are not always drawn.
QUANTITY_KIND: Ki
Show the value, then the unit it is measured in.

Solved entries (count: 2):
COMPOUND	REPORTED_MEASUREMENT
CCOC(=O)c1cnc(N2CCN3c4cccc(c4)[C@@H](n4cnc(-c5cc(Cl)ccc5-n5cc(Cl)nn5)cc4=O)CCCCCNC(=O)[C@H]3C2)o1 [Example 17]	16 nM
O=C1NCCCCC[C@H](n2cnc(-c3cc(Cl)ccc3-n3cc(Cl)nn3)cc2=O)c2cccc(c2)N2CCNC[C@@H]12 [Example 2, hydrochloride]	542 nM

Now consider the entry below.
Ask: Dear colleague, I am looking for the recorded Ki of the following compound: O=C1NCCCCC[C@H](n2cnc(-c3c(-n4cc(Cl)nn4)ccc(Cl)c3F)cc2=O)c2cccc(c2)N2C(=O)CC[C@@H]12 [Example 35]
Result: 5170 nM
